Test system: concanavalin A-induced lymphoblasts (Con A splenocytes)
PROTOCOL NOTES: Lymphoblast viability (LbV) assay
CONDITION NOTES: Con A-stimulated splenocytes (lymphoblasts), MTT
Numbered stars: 1 amine (or outer) side, 2 acyl side, 3 side chain; on linkers, the order of the positions; unused ones are H or OH. Bridge positions count the residues as written; N and C are the ends. Square brackets hold non-standard residues; d marks the D form. Peptide text beside a SMILES is read from it. * marks the point of attachment. X1 = CC[C@H](C)[C@@H](N[*:1])[C@@H](O)CC(=O)O[C@H](C(=O)[C@H](C)C(=O)[*:2])C(C)C; X7 = CCC(C)C(N[*:1])C(O)CC(=O)OC(C(=O)C(C)C(=O)[*:2])C(C)C; NMeY = CN[CH](Cc1ccc(O)cc1)C(=O)O; dNMeL = CN[C@H](CC(C)C)C(=O)O; NMeL = CN[CH](CC(C)C)C(=O)O; Isobutyryl = CC(C)C(=O)*; Propionyl = CCC(=O)*; Butyryl = CCCC(=O)*
cytotoxicity to lymphocytes LbV, LC50 reference
Your reply should be a number followed by the unit it is expressed in.

COMPOUND | SYSTEM NAME | cytotoxicity to lymphocytes LbV, LC50
CCCC(=O)N(C)C(CC(C)C)C(=O)NC1C(=O)NC(C(C)CC)C(O)CC(=O)OC(C(C)C)C(=O)C(C)C(=O)NC(CC(C)C)C(=O)N2CCCC2C(=O)N(C)C(Cc2ccc(OC)cc2)C(=O)OC1C (stereo not drawn) [Compound 20, N^α -n-Butyryldidemnin A] (Butyryl-[NMeL]T[X7]LP[NMeY](Me); ester 2-C; configuration not given here) | concanavalin A-induced lymphoblasts (Con A splenocytes) | 0.074 nM
CC[C@H](C)[C@H]1NC(=O)[C@@H](NC(=O)[C@@H](CC(C)C)N(C)C(=O)[C@H]2CCCN2C(=O)C(C)C)[C@@H](C)OC(=O)[C@H](Cc2ccc(OC)cc2)N(C)C(=O)[C@@H]2CCCN2C(=O)[C@H](CC(C)C)NC(=O)[C@@H](C)C(=O)[C@H](C(C)C)OC(=O)C[C@@H]1O [Compound 34, [Isobutyryl^9, D-Pro^8] Didemnin B] (Isobutyryl-[dP][dNMeL]T[X1]LP[NMeY](Me); ester 3-C) | concanavalin A-induced lymphoblasts (Con A splenocytes) | 4.81 nM

Quick one: give measured cytotoxicity to lymphocytes LbV, LC50 for CCC(=O)N(C)[C@H](CC(C)C)C(=O)N[C@@H]1C(=O)N[C@H]([C@@H](C)CC)[C@@H](O)CC(=O)O[C@@H](C(C)C)C(=O)[C@H](C)C(=O)N[C@@H](CC(C)C)C(=O)N2CCC[C@H]2C(=O)N(C)[C@@H](Cc2ccc(OC)cc2)C(=O)O[C@@H]1C [Compound 19, N^α -Propionyldidemnin A] (Propionyl-[dNMeL]T[X1]LP[NMeY](Me); ester 2-C)
0.068 nM
